- testedOn: hRAD51 (Homo sapiens, UniProt Q06609)
- Sequence (Q06609 2-339): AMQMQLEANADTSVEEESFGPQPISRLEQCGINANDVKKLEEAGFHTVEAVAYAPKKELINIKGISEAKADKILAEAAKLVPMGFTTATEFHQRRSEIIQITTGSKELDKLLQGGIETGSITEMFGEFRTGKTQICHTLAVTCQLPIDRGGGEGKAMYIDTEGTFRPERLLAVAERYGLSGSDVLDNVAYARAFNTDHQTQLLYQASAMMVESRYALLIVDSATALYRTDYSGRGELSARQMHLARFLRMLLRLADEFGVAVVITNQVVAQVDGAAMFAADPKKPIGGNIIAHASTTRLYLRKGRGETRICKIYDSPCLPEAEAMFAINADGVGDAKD
- assayProtocol: in vitro DNA strand exchange assay with recombinant hRAD51
- Format: biochemical
endpointName: EC50 (µM)
Field format: number, assumed µM, no unit text.

[ask] Can you share its EC50? I mean this compound: O=C(Nc1ccc(Br)cc1)c1ccc(Br)c(S(=O)(=O)NCc2ccccc2)c1 [RS-1]
[reply] 25

###

- testedOn: hRAD51 (Homo sapiens)
- assayProtocol: in vitro DNA strand exchange assay with recombinant hRAD51
- Type: biochemical
endpointName: EC50 (µM)
The answer is to be given in µM; state only the numeric part.

[ask] Param readout= EC50; system= hRAD51 (Homo sapiens); entry= COc1cc(/C=C/c2ccc(O)cc2)cc(OC)c1 ; returns value.
[reply] 19.2
